# studySystem: T1, Human EphA2 (Ecto) (Human, UniProt P29317 24-537)
# T1 construct: extracellular domain
# T1 sequence (P29317 24-537): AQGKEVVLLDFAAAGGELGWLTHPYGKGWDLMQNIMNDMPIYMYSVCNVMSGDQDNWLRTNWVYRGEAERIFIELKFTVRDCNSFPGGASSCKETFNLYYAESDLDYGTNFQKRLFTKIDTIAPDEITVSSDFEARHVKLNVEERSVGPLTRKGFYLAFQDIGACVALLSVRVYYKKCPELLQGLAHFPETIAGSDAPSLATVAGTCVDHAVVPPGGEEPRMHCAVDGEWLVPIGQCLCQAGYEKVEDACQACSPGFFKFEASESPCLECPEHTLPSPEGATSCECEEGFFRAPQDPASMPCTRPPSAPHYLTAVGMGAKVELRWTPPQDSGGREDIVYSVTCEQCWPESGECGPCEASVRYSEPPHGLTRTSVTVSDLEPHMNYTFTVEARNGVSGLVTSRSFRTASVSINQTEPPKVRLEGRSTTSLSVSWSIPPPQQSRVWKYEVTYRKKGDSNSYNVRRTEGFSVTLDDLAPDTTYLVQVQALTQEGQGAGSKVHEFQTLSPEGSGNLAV
# procedureSummary: FP competition, tracer Compound 66
Starred links: 1 amine or outer side, 2 acyl side, 3 side chain; linkers in the order of their positions; H or OH if unused. Positions of bridges follow the written chain, without caps; N, C: chain ends. Non-standard residues stand in square brackets, D forms with d. No end group written: not given here. TBMB = c1c(C[*:1])cc(C[*:3])cc1C[*:2]; Sar = CNCC(=O)O
Attribute: pKi
In textbook form, pKi equals minus log to base ten of the concentration in mol/L.

Some solved cases for reference:
[[record]]
binder = "[Sar][Sar]ACPWGPFWCPVNAPGC (linker 4-11-18 via TBMB) [Bicycle Compound 293]"
valueobserved = 6.15

[[record]]
binder = "[Sar][Sar]ACPWGPFWCPVN[dA]PGC (linker 4-11-18 via TBMB) [Bicycle Compound 302]"
valueobserved = 5.85

[[record]]
binder = "[Sar][Sar]ACPWGPFWCPVNRPAC (linker 4-11-18 via TBMB) [Bicycle Compound 111]"
valueobserved = 6.62


Recorded pKi of [Sar][Sar]ACPWGPFWCPVARPGC (linker 4-11-18 via TBMB) [Bicycle Compound 101] , please. 6.58

Tell me the measured pKi of [Sar][Sar]ACAWGPFWCPVNRPGC (linker 4-11-18 via TBMB) [Bicycle Compound 286] , please. 6.05

pKi for [Sar][Sar]ACPWGPFWCPVNR[dA]GC (linker 4-11-18 via TBMB) [Bicycle Compound 105] ? 6.33
